Some molecules, each annotated with its measured IC50.
- Test system: 966289-007-R4-J1-PDC complex spheroid viability
- test: Anticancer human tumor 966289-007-R4-J1-PDC patient-derived pancreatic adenocarcinoma cell line growth inhibition [RAS]
- conditionContext: curve of first compound; second compound 0.03 µM
State the answer as a number, implicitly in nM.

molecule: CCC(CC)c1cc(NC2CCC(N)C2)n2nccc2n1 (centres undefined) + CCn1c(-c2cc(N3CCN(C)CC3)cnc2C(C)OC)c2c3cc(ccc31)-c1csc(n1)CC(NC(=O)C1CC1C)C(=O)N1CCCC(N1)C(=O)OCC(C)(C)C2
outputUnit: nM
IC50: 1660

*Q* Read the entry CC1(O)CCCC1n1c(=O)c(C(F)F)cc2cnc(NC3CCN(S(C)(=O)=O)CC3)nc21 (centres undefined) + CCn1c(-c2cccnc2C(C)OC)c2c3cc(ccc31)N1CCOC(CC(NC(=O)C(C(C)C)N(C)C(=O)C3(F)CCN(C(=O)C#CC(C)(C)N(C)C)CC3)C(=O)N3CCCC(N3)C(=O)OCC(C)(C)C2)C1 and write its reported IC50.
*A* 81.7

====

- System: 966289-007-R4-J1-PDC complex spheroid viability
- test: Anticancer human tumor 966289-007-R4-J1-PDC cell line growth inhibition [RAS];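 also: spheroids exposed to agents for one week before readout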;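 as to viability, T/C: percent viability relative to DMSO vehicle control wells as 100%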
- conditionContext: second compound 0.3 µM; first compound 0.1 µM; stronger effect = lower value
Attribute: viability, T/C
Express the result in % but write the number alone.

Below: 3 compounds and their reported viability, T/C.
compound: CC(=O)OC12COC1CC(O)C1(C)C(=O)C(O)C3=C(C)C(OC(=O)C(O)C(NC(=O)OC(C)(C)C)c4ccccc4)CC(O)(C(OC(=O)c4ccccc4)C21)C3(C)C (centres undefined) + CCn1c(-c2cc(N3CCN(C)CC3)cnc2C(C)OC)c2c3cc(ccc31)-c1csc(n1)CC(NC(=O)C1CC1C)C(=O)N1CCCC(N1)C(=O)OCC(C)(C)C2
experimentalResult: 14.3
--
compound: CC1(O)CCCC1n1c(=O)c(C(F)F)cc2cnc(NC3CCN(S(C)(=O)=O)CC3)nc21 (centres undefined) + CCn1c(-c2cc(N3CCN(C)CC3)cnc2C(C)OC)c2c3cc(ccc31)-c1csc(n1)CC(NC(=O)C1CC1C)C(=O)N1CCCC(N1)C(=O)OCC(C)(C)C2
experimentalResult: 55.9
--
compound: NC1c2ccccc2OC12CCN(c1cnc3c(N4CCCc5ncccc54)n[nH]c3n1)CC2 (centres undefined) + CCn1c(-c2cccnc2C(C)OC)c2c3cc(ccc31)N1CCOC(CC(NC(=O)C(C(C)C)N(C)C(=O)C3(F)CCN(C(=O)C#CC(C)(C)N(C)C)CC3)C(=O)N3CCCC(N3)C(=O)OCC(C)(C)C2)C1
experimentalResult: 89.3

# context switch: different compound, same viability, T/C
*Q* Determine from records and report viability, T/C for Nc1ccn(C2OC(CO)C(O)C2(F)F)c(=O)n1 (centres undefined) + CCn1c(-c2cccnc2C(C)OC)c2c3cc(ccc31)N1CCOC(CC(NC(=O)C(C(C)C)N(C)C(=O)C3(F)CCN(C(=O)C#CC(C)(C)N(C)C)CC3)C(=O)N3CCCC(N3)C(=O)OCC(C)(C)C2)C1
*A* 0.98

====

- System: 966289-007-R4-J1-PDC complex spheroid viability
- test: Anticancer human tumor 966289-007-R4-J1-PDC cell line growth inhibition [RAS];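 also: spheroids exposed to agents for one week before readout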;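 as to viability, T/C: percent viability relative to DMSO vehicle control wells as 100%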
- conditionContext: second compound 0.003 µM; first compound 0.316 µM; stronger effect = lower value
- Excerpt: RAS pathway inhibitors in Combinations in Complex Spheroids A high-throughput screen of multi-cell type tumor spheroids was designed to identify active combinations of RAS pathway inhibitors and targeted small molecules. Complex spheroids include a stromal component modeled by human endothelial cells (HUVEC) and fibroblasts modeled by human mesenchymal stem cells (MSCs). […] Compounds. […] If the clinical Cmax for an agent had not been determined, the highest concentration tested was 10 microM. […]
metric: viability, T/C (%)
Lab book: enter the figure in %, no units written.

compound: C[C@@H](NC(=O)c1ncnc(N)c1Cl)c1ncc(C(=O)Nc2cc(C(F)(F)F)c(Cl)cn2)s1 + CCn1c(-c2cc(N3CCN(C)CC3)cnc2C(C)OC)c2c3cc(ccc31)-c1csc(n1)CC(NC(=O)C1CC1C)C(=O)N1CCCC(N1)C(=O)OCC(C)(C)C2
outputUnit: %
experimentalResult: 102

Now, please, on to the next compound.
*Q* // fetch viability, T/C given entry CC1(O)CCCC1n1c(=O)c(C(F)F)cc2cnc(NC3CCN(S(C)(=O)=O)CC3)nc21 (configuration not stated) + CCn1c(-c2cc(N3CCN(C)CC3)cnc2C(C)OC)c2c3cc(ccc31)-c1csc(n1)CC(NC(=O)C1CC1C)C(=O)N1CCCC(N1)C(=O)OCC(C)(C)C2
*A* 27.8

====

- System: 966289-007-R4-J1-PDC complex spheroid viability
- test: Anticancer human tumor 966289-007-R4-J1-PDC cell line growth inhibition [RAS];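 also: spheroids exposed to agents for one week before readout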;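 as to viability, T/C: percent viability relative to DMSO vehicle control wells as 100%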
- conditionContext: second compound 0.316 µM; first compound 0.1 µM; stronger effect = lower value
- Description: RAS pathway inhibitors in Combinations in Complex Spheroids A high-throughput screen of multi-cell type tumor spheroids was designed to identify active combinations of RAS pathway inhibitors and targeted small molecules. Complex spheroids include a stromal component modeled by human endothelial cells (HUVEC) and fibroblasts modeled by human mesenchymal stem cells (MSCs). […] Compounds. […] If the clinical Cmax for an agent had not been determined, the highest concentration tested was 10 microM. […]
viability, T/C values by entry
Write down the numeric answer in % and omit the unit.

Guide cases for viability, T/C, answers given:
compound: O=C(c1ccc(F)c(F)c1Nc1ccc(I)cc1F)N1CC(O)([C@@H]2CCCCN2)C1 + C=CC(=O)N1CCN(c2nc(OCC3CCCN3C)nc3c(F)c(-c4nc(N)cc(C)c4C(F)(F)F)c(Cl)cc23)C(C)C1
outputUnit: %
viability, T/C: 76.2
--
compound: Cc1nc(N2CCC3(CC2)COC(C)C3N)c(CO)nc1Sc1ccnc(N)c1Cl (centres undefined) + C#Cc1c(F)ccc2cc(O)cc(-c3ncc4c(N5CC6CCC(C5)N6)nc(OCC56CCCN5CC(F)C6)nc4c3F)c12
outputUnit: %
viability, T/C: 114
--
compound: NC1c2ccccc2OC12CCN(c1cnc3c(N4CCCc5ncccc54)n[nH]c3n1)CC2 (centres undefined) + C#Cc1c(F)ccc2cc(O)cc(-c3ncc4c(N5CC6CCC(C5)N6)nc(OCC56CCCN5CC(F)C6)nc4c3F)c12
outputUnit: %
viability, T/C: 105

*Q* Return the recorded viability, T/C value; entry: CC(C)NCC(C(=O)N1CCN(c2ncnc3c2C(C)CC3O)CC1)c1ccc(Cl)cc1 (centres undefined) + C=CC(=O)N1CCN(c2nc(OCC3CCCN3C)nc3c(F)c(-c4nc(N)cc(C)c4C(F)(F)F)c(Cl)cc23)C(C)C1
*A* 97.1

*Q* Answer with reported viability, T/C of C[C@@H](NC(=O)c1ncnc(N)c1Cl)c1ncc(C(=O)Nc2cc(C(F)(F)F)c(Cl)cn2)s1 + C#Cc1c(F)ccc2cc(O)cc(-c3ncc4c(N5CC6CCC(C5)N6)nc(OCC56CCCN5CC(F)C6)nc4c3F)c12
*A* 126

*Q* Item CC(=O)OC12COC1CC(O)C1(C)C(=O)C(O)C3=C(C)C(OC(=O)C(O)C(NC(=O)OC(C)(C)C)c4ccccc4)CC(O)(C(OC(=O)c4ccccc4)C21)C3(C)C (centres undefined) + C=CC(=O)N1CCN(c2nc(OCC3CCCN3C)nc3c(F)c(-c4nc(N)cc(C)c4C(F)(F)F)c(Cl)cc23)C(C)C1 : provide viability, T/C
*A* 12

*Q* Complete the entry with viability, T/C for CC(=O)OC12COC1CC(O)C1(C)C(=O)C(O)C3=C(C)C(OC(=O)C(O)C(NC(=O)OC(C)(C)C)c4ccccc4)CC(O)(C(OC(=O)c4ccccc4)C21)C3(C)C (centres undefined) + C#Cc1c(F)ccc2cc(O)cc(-c3ncc4c(N5CC6CCC(C5)N6)nc(OCC56CCCN5CC(F)C6)nc4c3F)c12
*A* 19.1

*Q* Specify measured viability, T/C for CCC(CC)c1cc(NC2CCC(N)C2)n2nccc2n1 (centres undefined) + C=CC(=O)N1CCN(c2nc(OCC3CCCN3C)nc3c(F)c(-c4nc(N)cc(C)c4C(F)(F)F)c(Cl)cc23)C(C)C1 .
*A* 97.9

*Q* Look up viability, T/C of CC1(O)CCCC1n1c(=O)c(C(F)F)cc2cnc(NC3CCN(S(C)(=O)=O)CC3)nc21 (centres undefined) + C=CC(=O)N1CCN(c2nc(OCC3CCCN3C)nc3c(F)c(-c4nc(N)cc(C)c4C(F)(F)F)c(Cl)cc23)C(C)C1 and report it.
*A* 61.9

====

- Test system: 966289-007-R4-J1-PDC complex spheroid viability
- test: Anticancer human tumor 966289-007-R4-J1-PDC cell line growth inhibition [RAS];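 also: spheroids exposed to agents for one week before readout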;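 as to viability, T/C: percent viability relative to DMSO vehicle control wells as 100%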
- conditionContext: second compound 0.000949 µM; first compound 3.16 µM; stronger effect = lower value
metric: viability, T/C (%)
Number only, in %; omit the unit.

compound: CC1(O)CCCC1n1c(=O)c(C(F)F)cc2cnc(NC3CCN(S(C)(=O)=O)CC3)nc21 (stereo not drawn) + CCn1c(-c2cccnc2C(C)OC)c2c3cc(ccc31)N1CCOC(CC(NC(=O)C(C(C)C)N(C)C(=O)C3(F)CCN(C(=O)C#CC(C)(C)N(C)C)CC3)C(=O)N3CCCC(N3)C(=O)OCC(C)(C)C2)C1
outputUnit: %
viability, T/C: 20.7

*Q* Annotate the compound Cc1nc(N2CCC3(CC2)COC(C)C3N)c(CO)nc1Sc1ccnc(N)c1Cl (stereo not drawn) + CCn1c(-c2cc(N3CCN(C)CC3)cnc2C(C)OC)c2c3cc(ccc31)-c1csc(n1)CC(NC(=O)C1CC1C)C(=O)N1CCCC(N1)C(=O)OCC(C)(C)C2 with its measured viability, T/C.
*A* 93.8

*Q* Quote viability, T/C reported for C[C@@H](NC(=O)c1ncnc(N)c1Cl)c1ncc(C(=O)Nc2cc(C(F)(F)F)c(Cl)cn2)s1 + CCn1c(-c2cccnc2C(C)OC)c2c3cc(ccc31)N1CCOC(CC(NC(=O)C(C(C)C)N(C)C(=O)C3(F)CCN(C(=O)C#CC(C)(C)N(C)C)CC3)C(=O)N3CCCC(N3)C(=O)OCC(C)(C)C2)C1 please.
*A* 66.5

*Q* Answer with reported viability, T/C of CC(C)NCC(C(=O)N1CCN(c2ncnc3c2C(C)CC3O)CC1)c1ccc(Cl)cc1 (stereo not drawn) + CCn1c(-c2cccnc2C(C)OC)c2c3cc(ccc31)N1CCOC(CC(NC(=O)C(C(C)C)N(C)C(=O)C3(F)CCN(C(=O)C#CC(C)(C)N(C)C)CC3)C(=O)N3CCCC(N3)C(=O)OCC(C)(C)C2)C1
*A* 46.3

*Q* Query viability, T/C for Cc1nc(N2CCC3(CC2)COC(C)C3N)c(CO)nc1Sc1ccnc(N)c1Cl (stereo not drawn) + CCn1c(-c2cccnc2C(C)OC)c2c3cc(ccc31)N1CCOC(CC(NC(=O)C(C(C)C)N(C)C(=O)C3(F)CCN(C(=O)C#CC(C)(C)N(C)C)CC3)C(=O)N3CCCC(N3)C(=O)OCC(C)(C)C2)C1
*A* 67.3

*Q* Please give measured viability, T/C of the following entry: CC(C)NCC(C(=O)N1CCN(c2ncnc3c2C(C)CC3O)CC1)c1ccc(Cl)cc1 (stereo not drawn) + CCn1c(-c2cc(N3CCN(C)CC3)cnc2C(C)OC)c2c3cc(ccc31)-c1csc(n1)CC(NC(=O)C1CC1C)C(=O)N1CCCC(N1)C(=O)OCC(C)(C)C2
*A* 68.4

*Q* Report measured viability, T/C; entry is NC1c2ccccc2OC12CCN(c1cnc3c(N4CCCc5ncccc54)n[nH]c3n1)CC2 (stereo not drawn) + CCn1c(-c2cc(N3CCN(C)CC3)cnc2C(C)OC)c2c3cc(ccc31)-c1csc(n1)CC(NC(=O)C1CC1C)C(=O)N1CCCC(N1)C(=O)OCC(C)(C)C2
*A* 123

*Q* Name the recorded viability, T/C of the compound listed here: C[C@@H](NC(=O)c1ncnc(N)c1Cl)c1ncc(C(=O)Nc2cc(C(F)(F)F)c(Cl)cn2)s1 + CCn1c(-c2cc(N3CCN(C)CC3)cnc2C(C)OC)c2c3cc(ccc31)-c1csc(n1)CC(NC(=O)C1CC1C)C(=O)N1CCCC(N1)C(=O)OCC(C)(C)C2
*A* 73.8
